# credit: patent US8653075B2

We begin with a simple list: items and their reported inhibition at 1 µM.
- targetOrTestSystem: human chemokine receptor CCR3 (Homo sapiens, UniProt P51677)
- Construct: expressed in transfected cells; host or cells: K562 cell line (hCCR3-C1 cells), membrane preparation
- Sequence (P51677 whole entry): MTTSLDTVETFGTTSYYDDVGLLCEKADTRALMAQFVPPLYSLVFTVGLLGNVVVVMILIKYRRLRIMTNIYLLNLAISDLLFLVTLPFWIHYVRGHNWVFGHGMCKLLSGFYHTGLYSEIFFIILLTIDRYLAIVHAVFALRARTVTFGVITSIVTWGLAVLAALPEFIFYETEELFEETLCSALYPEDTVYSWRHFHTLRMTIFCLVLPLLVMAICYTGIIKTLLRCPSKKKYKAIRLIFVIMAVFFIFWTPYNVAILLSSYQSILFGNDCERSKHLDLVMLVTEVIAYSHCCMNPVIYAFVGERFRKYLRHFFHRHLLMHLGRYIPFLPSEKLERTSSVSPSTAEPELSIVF
- assayInfo: CCR3 receptor binding assay (SPA, 125I-eotaxin-1 displacement, hCCR3-C1 K562 cell membranes)
- statedConditions: 1 μM test compound; human Eotaxin-1 at human CCR3-Rezeptor; read-out: CCR3 % inh @ 1 μM
Number first, unit second: that is the form wanted.

Observe how each entry below is paired with its result.
| compound | assayMetric | experimentalResult |
| --- | --- | --- |
| Cc1cc(CN2CCC(N3C(=O)CC[C@@H]3C(=O)Nc3cccc(C(=O)NCC4CCCCO4)c3)CC2)ccc1Cl (stereo partly shown) | inhibition at 1 µM | 97% |
| Cc1cc(CN2CCC(N3C(=O)CC[C@@H]3C(=O)Nc3cccc(C(=O)N(C)C4CC4)c3)CC2)ccc1Cl | inhibition at 1 µM | 100% |
| Cc1cc(CN2CCC(N3C(=O)CC[C@@H]3C(=O)Nc3ccc(N4CCCOC4=O)c(C)c3)CC2)ccc1Cl | inhibition at 1 µM | 83% |
| Cc1cc(NC(=O)[C@H]2CCC(=O)N2C2CCN(Cc3ccc(Cl)c(C)c3)CC2)cc(C(=O)N(C)CCO)c1 | inhibition at 1 µM | 99% |
| CNC(=O)c1cc(C)cc(NC(=O)[C@H]2CCC(=O)N2C2CCN(Cc3ccc(Cl)c(C)c3)CC2)c1 | inhibition at 1 µM | 100% |
| CNC(=O)c1cccc(NC(=O)[C@H]2CCC(=O)N2C2CCN(Cc3ccc(Cl)c(F)c3)CC2)c1 | inhibition at 1 µM | 80% |

// below: inhibition at 1 µM requested for another compound
input: Can you share its inhibition at 1 µM? I mean this compound: "CNC(=O)c1cccc(NC(=O)[C@@H]2CN(C)C(=O)N2C2CCN(Cc3ccc(Cl)c(C)c3)CC2)c1"
output: 90%
